FYI, the data here is from ChEMBL document CHEMBL4673222.

Hi there, I'd appreciate the recorded pIC50 for every entry that follows.
Assay Target: Cystathionine gamma-lyase (Mus musculus, UniProt Q8VCN5)
Sequence (Q8VCN5 whole entry): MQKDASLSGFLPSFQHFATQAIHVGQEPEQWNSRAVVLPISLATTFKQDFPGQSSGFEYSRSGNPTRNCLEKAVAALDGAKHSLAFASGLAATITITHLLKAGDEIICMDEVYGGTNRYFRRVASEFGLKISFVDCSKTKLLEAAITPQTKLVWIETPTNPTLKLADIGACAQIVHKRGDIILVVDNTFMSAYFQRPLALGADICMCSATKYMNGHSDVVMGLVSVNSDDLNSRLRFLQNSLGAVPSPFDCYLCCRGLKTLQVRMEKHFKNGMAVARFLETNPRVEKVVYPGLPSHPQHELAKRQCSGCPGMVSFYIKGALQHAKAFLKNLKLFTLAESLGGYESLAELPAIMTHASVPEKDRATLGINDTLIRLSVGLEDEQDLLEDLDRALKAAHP
Protocol Text: Inhibition of CSE in mouse RAW264.7 cells assessed as reduction in endogenous H2S level by AzMC probe based fluorescence assay
Answers are plain numbers, as −log10 of the molar value.

C#CCC(N)C(=O)O (racemic) | 3.43

Consider the additional compound presented here.
Give the measured pIC50 of O=C(O)C1=CC(=C(c2ccc(O)c(C(=O)O)c2)c2ccc(O)c(C(=O)O)c2)C=CC1=O [AURINTRICARBOXYLIC ACID] .
4.36

----------
Assay Target: Cystathionine gamma-lyase (Homo sapiens, UniProt P32929)
Sequence (P32929 whole entry): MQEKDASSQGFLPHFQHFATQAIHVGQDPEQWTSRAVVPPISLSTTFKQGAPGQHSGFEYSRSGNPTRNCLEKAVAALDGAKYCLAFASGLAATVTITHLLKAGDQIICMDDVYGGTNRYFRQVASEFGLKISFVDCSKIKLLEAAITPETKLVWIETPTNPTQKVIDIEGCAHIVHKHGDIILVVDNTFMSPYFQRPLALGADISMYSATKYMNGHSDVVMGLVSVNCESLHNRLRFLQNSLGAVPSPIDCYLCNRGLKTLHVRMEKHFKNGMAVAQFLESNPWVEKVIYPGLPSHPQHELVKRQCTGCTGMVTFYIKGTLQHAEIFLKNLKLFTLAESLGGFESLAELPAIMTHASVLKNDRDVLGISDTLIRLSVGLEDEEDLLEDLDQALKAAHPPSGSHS
Protocol Text: Inhibition of human CSE using L-Cys as the substrate in presence of 0.01% Triton X-100 by tandem well based HTS assay
Quantity Name: IC50
Give your result as the value with the unit written after it.

Give the measured IC50 of `O=C(O)C1=CC(=C(c2ccc(O)c(C(=O)O)c2)c2ccc(O)c(C(=O)O)c2)C=CC1=O` .
1.8 µM

----------
Assay Target: Cystathionine gamma-lyase (Homo sapiens, UniProt P32929)
Protocol Text: Inhibition of human CSE using L-Cys as the substrate by tandem well based HTS assay
Quantity Name: IC50

O=C1c2ccccc2C(=O)c2sc(Nc3ccc(Cl)cc3)nc21 | < 50 µM
O=C(O)C1=C/C(=C(\c2ccccc2)c2cc(C(=O)O)c(O)c3ccccc23)c2ccccc2C1=O | > 200 µM
CC1=C/C(=C(\c2cc(C)c(O)c(C(=O)O)c2)c2c(Cl)ccc(S(=O)(=O)O)c2Cl)C=C(C(=O)O)C1=O | 143 µM
O=C(O)c1cc(/N=N/c2ccc(O)c(C(=O)O)c2)ccc1O [OLSALAZINE] | > 200 µM
O=C1C(Cl)=C(NCCCCCCNC2=C(Cl)C(=O)c3ccccc3C2=O)C(=O)c2ccccc21 | < 50 µM
O=CN/C=C\c1cc(O)ccc1O | < 50 µM
CC1=C/C(=C(\c2cc(C)c(O)c(C(=O)O)c2)c2c(Cl)cccc2Cl)C=C(C(=O)O)C1=O | 155 µM
CN1CCN(C2=C(Cl)C(=O)c3ccccc3C2=O)CC1 | < 50 µM
CCNC1=CC(=O)c2ncccc2C1=O | < 50 µM

Consider the additional molecule presented here.
Give the measured IC50 of `NC1=C(Cl)C(=O)c2ncccc2C1=O` .
< 50 µM
